# credit: ChEMBL document CHEMBL4138284

system: Staphylococcus aureus; experiment: Antibacterial activity against methicillin-resistant Staphylococcus aureus isolate 6 incubated overnight by agar dilution method; type: functional
parameter: MIC (µg/mL)

- compound: "C[C@]12C[C@]34C[C@@H]1C[C@H](O2)[C@H]3[C@](C)(CCC(=O)Nc1c(O)ccc(C(=O)O)c1O)C(=O)C[C@@H]4SC(=O)c1ccc(Br)cc1"
  parameter: "MIC"
  quantitative readout: 1
- compound: "C[C@]12C[C@]34C[C@@H]1C[C@H](O2)[C@H]3[C@](C)(CCC(=O)Nc1c(O)ccc(C(=O)O)c1O)C(=O)C[C@@H]4SC(=O)c1ccc2ccccc2c1"
  parameter: "MIC"
  quantitative readout: 1
- compound: "C=C1C[C@@]23CCC1C[C@@H]2[C@](C)(CCC(=O)Nc1c(O)ccc(C(=O)O)c1O)C(=O)C[C@@H]3SC(=O)Cc1ccc(F)cc1 (single isomer, unassigned)"
  parameter: "MIC"
  quantitative readout: 2

###

test system: Staphylococcus aureus; test: Antibacterial activity against methicillin-resistant Staphylococcus aureus isolate 11 incubated overnight by agar dilution method; format: functional
parameter: MIC (µg/mL)

- chem smiles: "C[C@]12C[C@]34C[C@@H]1C[C@H](O2)[C@H]3[C@](C)(CCC(=O)Nc1c(O)ccc(C(=O)O)c1O)C(=O)C[C@@H]4SC(=O)c1ccc(F)cc1"
  parameter: "MIC"
  unit text: "µg/mL"
  quantitative readout: 2
- chem smiles: "COc1ccc(C(=O)S[C@H]2CC(=O)[C@@](C)(CCC(=O)Nc3c(O)ccc(C(=O)O)c3O)[C@@H]3[C@@H]4C[C@H]5C[C@]23C[C@]5(C)O4)cc1"
  parameter: "MIC"
  unit text: "µg/mL"
  quantitative readout: 2
- chem smiles: "C[C@]12C[C@]34C[C@@H]1C[C@H](O2)[C@H]3[C@](C)(CCC(=O)Nc1c(O)ccc(C(=O)O)c1O)C(=O)C[C@@H]4SC(=O)c1ccccc1F"
  parameter: "MIC"
  unit text: "µg/mL"
  quantitative readout: 2

###

test system: Staphylococcus aureus; experiment: Antibacterial activity against methicillin-resistant Staphylococcus aureus isolate 11 incubated overnight by agar dilution method; type: functional
Items are presented alongside their recorded MIC.

- chem smiles: "C[C@]12C[C@]34C[C@@H]1C[C@H](O2)[C@H]3[C@](C)(CCC(=O)Nc1c(O)ccc(C(=O)O)c1O)C(=O)C[C@@H]4SC(=O)c1ccc(Cl)cc1"
  MIC: "2 µg/mL"
- chem smiles: "C[C@]12C[C@]34C[C@@H]1C[C@H](O2)[C@H]3[C@](C)(CCC(=O)Nc1c(O)ccc(C(=O)O)c1O)C(=O)C[C@@H]4SC(=O)c1ccccc1"
  MIC: "2 µg/mL"
- chem smiles: "C[C@]12C[C@]34C[C@@H]1C[C@H](O2)[C@H]3[C@](C)(CCC(=O)Nc1c(O)ccc(C(=O)O)c1O)C(=O)C[C@@H]4SC(=O)c1cccs1"
  MIC: "1 µg/mL"

###

Items are presented alongside their recorded MIC.
test system: Staphylococcus aureus; assay: Antibacterial activity against Staphylococcus aureus ATCC 29213 incubated overnight by agar dilution method; type: functional
parameter: MIC (µg/mL)

- molecule: "COc1ccc(C(=O)S[C@H]2CC(=O)[C@@](C)(CCC(=O)Nc3c(O)ccc(C(=O)O)c3O)[C@@H]3[C@@H]4C[C@H]5C[C@]23C[C@]5(C)O4)cc1"
  assay target: "Staphylococcus aureus"
  unit text: "µg/mL"
  quantitative readout: 1
- molecule: "CC(=O)NC[C@H]1CN(c2ccc(N3CCOCC3)c(F)c2)C(=O)O1 [LINEZOLID]"
  assay target: "Staphylococcus aureus"
  unit text: "µg/mL"
  quantitative readout: 1
- molecule: "C=C1C[C@@]23CCC1C[C@@H]2[C@](C)(CCC(=O)Nc1c(O)ccc(C(=O)O)c1O)C(=O)C[C@@H]3SC(C)=O (single isomer, unassigned)"
  assay target: "Staphylococcus aureus"
  unit text: "µg/mL"
  quantitative readout: 4
- molecule: "C[C@]12C[C@]34C[C@@H]1C[C@H](O2)[C@H]3[C@](C)(CCC(=O)Nc1c(O)ccc(C(=O)O)c1O)C(=O)C[C@@H]4SC(=O)c1cccs1"
  assay target: "Staphylococcus aureus"
  unit text: "µg/mL"
  quantitative readout: 2
- molecule: "CC(=O)S[C@H]1CC(=O)[C@@](C)(CCC(=O)Nc2c(O)ccc(C(=O)O)c2O)[C@@H]2[C@@H]3C[C@H]4C[C@]12C[C@]4(C)O3"
  assay target: "Staphylococcus aureus"
  unit text: "µg/mL"
  quantitative readout: 2
- molecule: "C[C@]12C[C@]34C[C@@H]1C[C@H](O2)[C@H]3[C@](C)(CCC(=O)Nc1c(O)ccc(C(=O)O)c1O)C(=O)C[C@@H]4SC(=O)c1cccc(F)c1"
  assay target: "Staphylococcus aureus"
  unit text: "µg/mL"
  quantitative readout: 2
- molecule: "Cc1ccc(S[C@H]2CC(=O)[C@@](C)(CCC(=O)Nc3c(O)ccc(C(=O)O)c3O)[C@@H]3[C@@H]4C[C@H]5C[C@]23C[C@]5(C)O4)cc1"
  assay target: "Staphylococcus aureus"
  unit text: "µg/mL"
  quantitative readout: 4
- molecule: "C[C@]12C[C@]34C[C@@H]1C[C@H](O2)[C@H]3[C@](C)(CCC(=O)Nc1c(O)ccc(C(=O)O)c1O)C(=O)C[C@@H]4SC(=O)c1ccc2ccccc2c1"
  assay target: "Staphylococcus aureus"
  unit text: "µg/mL"
  quantitative readout: 2
- molecule: "Cc1ccc(C(=O)S[C@H]2CC(=O)[C@@](C)(CCC(=O)Nc3c(O)ccc(C(=O)O)c3O)[C@@H]3[C@@H]4C[C@H]5C[C@]23C[C@]5(C)O4)cc1"
  assay target: "Staphylococcus aureus"
  unit text: "µg/mL"
  quantitative readout: 1
- molecule: "CCS[C@H]1CC(=O)[C@@](C)(CCC(=O)Nc2c(O)ccc(C(=O)O)c2O)[C@@H]2[C@@H]3C[C@H]4C[C@]12C[C@]4(C)O3"
  assay target: "Staphylococcus aureus"
  unit text: "µg/mL"
  quantitative readout: 0.5
- molecule: "C[C@]12C[C@]34C[C@@H]1C[C@H](O2)[C@H]3[C@](C)(CCC(=O)Nc1c(O)ccc(C(=O)O)c1O)C(=O)C[C@@H]4SC(=O)c1cccc(C(F)(F)F)c1"
  assay target: "Staphylococcus aureus"
  unit text: "µg/mL"
  quantitative readout: 2
- molecule: "C=C1C[C@@]23CCC1C[C@@H]2[C@](C)(CCC(=O)Nc1c(O)ccc(C(=O)O)c1O)C(=O)C[C@@H]3Sc1ccc(C)cc1 (single isomer, unassigned)"
  assay target: "Staphylococcus aureus"
  unit text: "µg/mL"
  quantitative readout: 2
- molecule: "C[C@]12C[C@]34C[C@@H]1C[C@H](O2)[C@H]3[C@](C)(CCC(=O)Nc1c(O)ccc(C(=O)O)c1O)C(=O)C[C@@H]4SC(=O)c1ccc(Cl)cc1"
  assay target: "Staphylococcus aureus"
  unit text: "µg/mL"
  quantitative readout: 1
- molecule: "C[C@]12C[C@@]34C=CC(=O)[C@@](C)(CCC(=O)Nc5c(O)ccc(C(=O)O)c5O)[C@@H]3[C@H](C[C@@H]1C4)O2"
  assay target: "Staphylococcus aureus"
  unit text: "µg/mL"
  quantitative readout: 1
- molecule: "C[C@]12C[C@]34C[C@@H]1C[C@H](O2)[C@H]3[C@](C)(CCC(=O)Nc1c(O)ccc(C(=O)O)c1O)C(=O)C[C@@H]4SC(=O)Cc1ccc(F)cc1"
  assay target: "Staphylococcus aureus"
  unit text: "µg/mL"
  quantitative readout: 2
- molecule: "C[C@]12C[C@]34C[C@@H]1C[C@H](O2)[C@H]3[C@](C)(CCC(=O)Nc1c(O)ccc(C(=O)O)c1O)C(=O)C[C@@H]4SC(=O)c1ccc(Br)cc1"
  assay target: "Staphylococcus aureus"
  unit text: "µg/mL"
  quantitative readout: 1
- molecule: "C[C@]12C[C@]34C[C@@H]1C[C@H](O2)[C@H]3[C@](C)(CCC(=O)Nc1c(O)ccc(C(=O)O)c1O)C(=O)C[C@@H]4SC(=O)c1ccccc1F"
  assay target: "Staphylococcus aureus"
  unit text: "µg/mL"
  quantitative readout: 1
- molecule: "C[C@]12C[C@]34C[C@@H]1C[C@H](O2)[C@H]3[C@](C)(CCC(=O)Nc1c(O)ccc(C(=O)O)c1O)C(=O)C[C@@H]4SC(=O)c1ccc(F)cc1"
  assay target: "Staphylococcus aureus"
  unit text: "µg/mL"
  quantitative readout: 1
- molecule: "C[C@]12C[C@]34C[C@@H]1C[C@H](O2)[C@H]3[C@](C)(CCC(=O)Nc1c(O)ccc(C(=O)O)c1O)C(=O)C[C@@H]4SC(=O)c1ccc(C(F)(F)F)cc1"
  assay target: "Staphylococcus aureus"
  unit text: "µg/mL"
  quantitative readout: 1
- molecule: "C=C1C[C@@]23CCC1C[C@@H]2[C@](C)(CCC(=O)Nc1c(O)ccc(C(=O)O)c1O)C(=O)C[C@@H]3SC(=O)Cc1ccc(F)cc1 (single isomer, unassigned)"
  assay target: "Staphylococcus aureus"
  unit text: "µg/mL"
  quantitative readout: 4
